System: Influenza A/H3N2 (A/Victoria/361/11)
measurement_description: Influenza CPE reduction in MDCK cells, MTS assay, A/H3N2
Assay type: cell-based
cond: Influenza A virus, H3N2, MDCK, read-out: Antiviral EC50 Influenza A/H3N2
test_readout: pEC50
Kindly note that pEC50 refers to -log10 of the concentration in mol/L and answer with the value alone.

Ask: Item under review: NC(=O)c1ncn([C@@H]2O[C@H](CO)[C@@H](O)[C@H]2O)n1 . Reported pEC50?
Result: 5.19
